Experimental system: T1, CRF2R
T1 sequence (Q13324 whole entry, species assumed, looked up): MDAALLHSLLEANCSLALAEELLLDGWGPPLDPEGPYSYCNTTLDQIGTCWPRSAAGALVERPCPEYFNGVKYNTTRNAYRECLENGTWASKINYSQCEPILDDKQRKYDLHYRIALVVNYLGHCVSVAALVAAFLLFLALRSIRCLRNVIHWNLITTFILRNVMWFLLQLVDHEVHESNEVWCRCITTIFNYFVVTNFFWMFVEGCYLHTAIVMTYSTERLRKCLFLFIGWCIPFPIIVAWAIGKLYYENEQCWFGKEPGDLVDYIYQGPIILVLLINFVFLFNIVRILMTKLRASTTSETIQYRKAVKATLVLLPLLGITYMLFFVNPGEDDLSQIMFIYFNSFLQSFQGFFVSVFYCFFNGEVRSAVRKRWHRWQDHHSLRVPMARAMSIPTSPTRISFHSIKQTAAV
Test details: cell-based or functional assay
Ends that are not written are not given here.
Quantity measured: CRF2R EC50 (nM)

>>> result("ZGPPISIDLSLELLRKMIEIEKQEKEKQQAANNRLLLDTI (C-terminal amide) [SEQ ID NO 355]")
6.03
>>> result("ZGPPISIDLPFQLLRLLIEIEKQEKEKQQAANNALLLATI (C-terminal amide) [SEQ ID NO 360]")
6.12
>>> result("DNPSLSIDLPLLLLRTLLELEKTQSQRERAEQNAQIFAHV-NH2 [SEQ ID NO 324]")
17.2
>>> result("ZGPPISIDLPFQLLRKLIEIEKQEKEKQQAANNALLLATI (C-terminal amide) [SEQ ID NO 357]")
6.44
>>> result("ZGPPISIDLPLELLRKMIEIEKQEKEKQQAANNALLLDTI (C-terminal amide) [SEQ ID NO 235]")
25.7
>>> result("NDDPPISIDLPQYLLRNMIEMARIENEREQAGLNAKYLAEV-NH2 [SEQ ID NO 265]")
100
